- Target Desc: Hypoxia-inducible factor 1-alpha (Mus musculus) (UniProt Q61221)
- Sequence (Q61221 whole entry): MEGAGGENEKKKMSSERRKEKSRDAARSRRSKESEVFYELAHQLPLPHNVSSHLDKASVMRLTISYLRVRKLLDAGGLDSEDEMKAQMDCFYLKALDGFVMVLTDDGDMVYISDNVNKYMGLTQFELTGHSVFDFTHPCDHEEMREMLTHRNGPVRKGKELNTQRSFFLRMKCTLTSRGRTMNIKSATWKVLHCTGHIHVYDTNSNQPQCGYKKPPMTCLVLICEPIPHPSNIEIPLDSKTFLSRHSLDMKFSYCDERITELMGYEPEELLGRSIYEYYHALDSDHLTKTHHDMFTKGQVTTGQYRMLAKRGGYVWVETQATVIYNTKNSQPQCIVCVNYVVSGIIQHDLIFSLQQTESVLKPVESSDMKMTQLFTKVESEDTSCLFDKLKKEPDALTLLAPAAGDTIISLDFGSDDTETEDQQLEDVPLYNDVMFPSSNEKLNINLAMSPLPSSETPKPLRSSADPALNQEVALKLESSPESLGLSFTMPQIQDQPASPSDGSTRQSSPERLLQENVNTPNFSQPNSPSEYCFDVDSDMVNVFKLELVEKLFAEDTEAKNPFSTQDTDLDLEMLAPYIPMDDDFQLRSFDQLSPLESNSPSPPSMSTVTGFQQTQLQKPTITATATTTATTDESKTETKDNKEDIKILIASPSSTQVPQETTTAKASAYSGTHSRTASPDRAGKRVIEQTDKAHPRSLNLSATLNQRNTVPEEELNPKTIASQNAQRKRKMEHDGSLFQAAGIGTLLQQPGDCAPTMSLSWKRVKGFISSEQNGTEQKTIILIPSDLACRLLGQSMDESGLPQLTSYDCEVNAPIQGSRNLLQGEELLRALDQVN
- Method Description: Induction of stabilization of HIF-1alpha in mouse NIH-3T3-HIF/Luc cells assessed as activation of HRE by measuring […] at 500 uM incubated for 24 hrs by Bright-glo luciferase assay
- Assay type: cell-based
Measured Quantity: fold change (FC)

The cases that follow already have their fold change (FC) on record.
COC(=O)C(=O)NCC(=O)OCOC(=O)OC(C)(C)C :: < 1
COC(=O)C(=O)NCC(=O)OC(C)OC(C)=O (stereo not drawn) :: < 2
COC(=O)C(=O)NCC(=O)OCOC(C)=O :: < 1
COC(=O)C(=O)NCC(=O)OCOC(=O)OC(C)C :: < 1
COC(=O)C(=O)NCC(=O)OC(C)OC(=O)OC(C)(C)C (stereo not drawn) :: < 2

[Q] Given the compound COC(=O)C(=O)NCC(=O)OCOC(=O)Oc1ccccc1 , write its reported fold change (FC).
[A] < 1

[Q] Given the compound COC(=O)C(=O)NCC(=O)OC(C)OC(=O)c1ccccc1 (stereo not drawn) , write its reported fold change (FC).
[A] < 2

[Q] Given the compound COC(=O)OCOC(=O)CNC(=O)C(=O)OC , write its reported fold change (FC).
[A] < 1
